- subject-of-test: T1, human ROR1 (Receptor Tyrosine Kinase-Like Orphan Receptor 1) on the cell surface (human, UniProt Q01973 30-937)
- T1 construct: whole, on cells; engineered into B16-F10 (high density) and LS174T (low density) cells; also called B16-F10-ROR1-H; LS174T-ROR1-L
- test-method-notes: flow cytometry, B16-F10 cells expressing human ROR1 (high density)
Items are presented alongside their recorded MFI.
measured-attribute: MFI

{"columns": ["binder", "meas-value"],
 "data": [
  ["FUSE-598 (h5A1-HK6 Fc) (Fc fusion, VHH-Fc format; not shown: Fc of the VHH-Fc format) EVQLLESGGGLVQPGGSLRLSCAASGYTNRLKCMGWFRQAPGKERELASISTGTGNTYYADSVKGRFTISQDGSKNTLYLQMNSLRAEDTAVYYCAADVRPDGTTCHYNSRGQGTLVTVSS", 9560],
  ["FUSE-597 (h5A1-HK2 Fc) (Fc fusion, VHH-Fc format; not shown: Fc of the VHH-Fc format) EVQLLESGGGLVQPGGSLRLSCAASGYTNRLKCMGWFRQAPGKERELASISTGTGNTYYADSVKGRFTISRDGSKNTLYLQMNSLRAEDTAVYYCAADVRPDGTTCHYNSRGQGTLVTVSS", 10100],
  ["FUSE-112 (2A11 VHH-human-Fc fusion protein) (Fc fusion, VHH-human-Fc fusion; non-humanized 2A11; also called 2A11-Fc; not shown: human Fc) QVQLQESGGGSVPAGGSLRLSCAASGSTYSANCMGWFRQAPGKEREEVASMSIRSGRTYYSDSVKGRFTISQDGSKNTLYLQLNSLKAEDTALYYCAAAYGGSRCVYNYRGQGTQVTVSS", 11900],
  ["FUSE-179 (5A1 VHH-human-Fc fusion protein) (Fc fusion, VHH-human-Fc fusion; non-humanized 5A1; not shown: human Fc) QVQLQESGGGSVQAGGSLKLSCTASGYTNRLKCMGWFRQAPGKEREEIATISTGTGNTYYADSVKGRFTFSQDKVKNTVYLQMNTLKPDDTGMYYCAADVRPDGTTCHYNSGGQGTQVTVSS", 8480]
]}
